Where these numbers come from: patent US20240287080A1

molecular target: Pol theta (1-899) (Homo sapiens); construct: Pol theta (1-899) (5 nM) in assay buffer; experiment: Pol theta ATPase activity, NADH oxidation-coupled enzymatic assay (ATPase NADH coupling: Standard Screening: hPolQ); type: biochemical; conditions: Table 4; Pol theta (1-899) 5 nM, ATP, dT50 ssDNA
Sequence (O75417 1-899): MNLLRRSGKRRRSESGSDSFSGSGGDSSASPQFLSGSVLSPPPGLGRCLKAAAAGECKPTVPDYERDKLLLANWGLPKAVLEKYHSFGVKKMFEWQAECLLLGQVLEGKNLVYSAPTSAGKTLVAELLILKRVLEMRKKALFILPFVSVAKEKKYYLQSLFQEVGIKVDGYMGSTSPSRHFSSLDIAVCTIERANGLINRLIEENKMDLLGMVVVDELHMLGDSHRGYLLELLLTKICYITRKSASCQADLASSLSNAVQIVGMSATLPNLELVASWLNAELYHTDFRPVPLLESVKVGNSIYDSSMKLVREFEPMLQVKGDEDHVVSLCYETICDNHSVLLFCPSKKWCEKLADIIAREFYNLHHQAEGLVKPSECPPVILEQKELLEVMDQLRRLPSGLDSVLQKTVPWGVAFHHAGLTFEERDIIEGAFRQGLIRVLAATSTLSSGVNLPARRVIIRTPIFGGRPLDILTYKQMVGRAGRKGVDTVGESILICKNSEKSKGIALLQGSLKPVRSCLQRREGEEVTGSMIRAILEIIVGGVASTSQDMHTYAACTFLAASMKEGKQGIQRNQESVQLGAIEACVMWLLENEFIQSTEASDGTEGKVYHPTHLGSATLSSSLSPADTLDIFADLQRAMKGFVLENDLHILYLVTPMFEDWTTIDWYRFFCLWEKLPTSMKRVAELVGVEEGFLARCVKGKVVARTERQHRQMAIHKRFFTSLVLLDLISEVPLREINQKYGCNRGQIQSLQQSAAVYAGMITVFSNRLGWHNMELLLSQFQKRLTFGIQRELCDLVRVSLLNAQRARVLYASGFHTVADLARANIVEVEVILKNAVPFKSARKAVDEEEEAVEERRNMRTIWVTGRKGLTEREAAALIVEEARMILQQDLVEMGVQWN
pIC50: −log10 of the molar value.
Please respond with reported pIC50 for every item in the list.

Examples with answers:
Checklist item: pIC50 tested on Pol theta (1-899) (Homo sapiens), entry `COc1nnc(NC(=O)c2cnc(C)cc2-c2cc(C)nnc2OC)s1` , value?
6.30 to 6.70

Checklist item: pIC50 tested on Pol theta (1-899) (Homo sapiens), entry `COc1cnc(Cl)cc1-c1cc(C)ncc1C(=O)Nc1nnc(O[C@H]2C[C@@H](O)C2)s1` , value?
≥ 6.70

Checklist item: pIC50 tested on Pol theta (1-899) (Homo sapiens), entry `COc1nnc(NC(=O)c2cnc(C)cc2-c2cc(Cl)ccc2OC(F)F)s1` , value?
≥ 6.70

Checklist item: pIC50 tested on Pol theta (1-899) (Homo sapiens), entry `COc1nnc(NC(=O)c2cnc(C)cc2-c2c(OC)cnc(Cl)c2F)s1` , value?
≥ 6.70

Checklist item: pIC50 tested on Pol theta (1-899) (Homo sapiens), entry `COc1cnc(Cl)cc1-c1cc(C)ncc1C(=O)Nc1nnc(OCC(F)(F)F)s1` , value?
≥ 6.70

Checklist item: pIC50 tested on Pol theta (1-899) (Homo sapiens), entry `COc1cnc(Cl)cc1-c1cc(C)ncc1C(=O)Nc1nnc(O[C@H]2C[C@H](O)C2)s1` , value?
≥ 6.70

Checklist item: pIC50 tested on Pol theta (1-899) (Homo sapiens), entry `COc1nnc(NC(=O)c2cn3ccnc3cc2-c2c(F)cccc2OC)s1` , value?
5.00 to 6.00

Checklist item: pIC50 tested on Pol theta (1-899) (Homo sapiens), entry `COc1nnc(NC(=O)c2cnc(C)cc2-c2cc(C)ncc2Cl)s1` , value?
≥ 6.70

Checklist item: pIC50 tested on Pol theta (1-899) (Homo sapiens), entry `COc1nnc(NC(=O)c2cnc(C)cc2-c2c(Cl)cccc2Cl)s1` , value?
6.00 to 6.30

Checklist item: pIC50 tested on Pol theta (1-899) (Homo sapiens), entry `CCc1cc(-c2cc(C)ncc2C(=O)Nc2nnc(OC)s2)c(OC)cn1` , value?
≥ 6.70

Value sought for every listed molecule: pIC50.
1. COc1cnc(Cl)cc1-c1cc(C)ncc1C(=O)Nc1nnc(O[C@H]2CCOC2)s1
2. COc1nnc(NC(=O)c2cnc(C)cc2-c2c(Cl)cccc2OC)s1
3. COc1nnc(NC(=O)c2cnc(C)cc2-c2cc([C@@H](C)O)ncc2OC)s1 (single isomer, unassigned)
4. COc1nnc(NC(=O)c2cnc(C)cc2-c2c(F)cccc2Cl)s1
5. COc1cnc(Cl)cc1-c1cc(C)ncc1C(=O)Nc1nnc(OCC(C)(C)O)s1
6. COc1nnc(NC(=O)c2cnc(C)cc2-c2c(OC)cnc(C)c2F)s1
7. COc1nnc(NC(=O)c2cnc(C)cc2-c2cc3[nH]ncc3cc2OC)s1

1. ≥ 6.70
2. 6.30 to 6.70
3. 5.00 to 6.00
4. ≥ 6.70
5. ≥ 6.70
6. ≥ 6.70
7. 5.00 to 6.00

Value sought for every listed molecule: pIC50.
1. CCCOc1nnc(NC(=O)c2cnc(C)cc2-c2cc(Cl)ncc2OC)s1
2. COCCOc1nnc(NC(=O)c2ccncc2-c2ccccc2OC)s1
3. COc1nnc(NC(=O)c2cnc(C)cc2-c2ccccc2OC)s1
4. COc1nnc(NC(=O)c2cnc(C)cc2-c2cc(C)ncc2OC(F)F)s1
5. COc1cnc(Cl)c(F)c1-c1cc(C)ncc1C(=O)Nc1nnc(OC2COC2)s1
6. CCOc1ccc(Cl)cc1-c1cc(C)ncc1C(=O)Nc1nnc(OC)s1
7. COc1nnc(NC(=O)c2cnc(C)cc2-c2cc(Br)ncc2OC)s1

≥ 6.70
6.00 to 6.30
6.00 to 6.30
≥ 6.70
≥ 6.70
6.30 to 6.70
≥ 6.70
